# tested.on: TNKS1 (Homo sapiens)
# protocol.summary: TNKS1/PARP Biochemical Assay (TNKS1)
Property: IC50; scope: individual molecules

Suppose we examine the molecule Cc1cc(F)cc2c(=O)[nH]c(-c3ccc(CN4CCN(C)CC4)cc3)cc12 ; what IC50 value has been reported?
29 nM

Fill blank: measured IC50 of the molecule Cc1cccc2c(=O)[nH]c(-c3ccc(S(=O)(=O)N(C)C4CCN(C)CC4)cc3)cc12 is ____.
< 20 nM

So what's the measured IC50 for this one? Cc1cc(F)cc2c(=O)[nH]c(-c3ccc(C(=O)N(C)C4CCN(C)CC4)cc3)cc12
< 20 nM

For the molecule CCc1cccc2c(=O)[nH]c(-c3ccc(CN4CCNCC4)cc3)cc12 , what IC50 is on record?
< 50 nM

State the recorded IC50 for this entry: Cc1cccc2c(=O)[nH]c(-c3ccc(CN4CCN(C)C(C)C4)cc3)cc12 (stereo not drawn)
< 50 nM

Find the recorded IC50 belonging to CN1CCN(c2ccc(-c3cc4c(Cl)cccc4c(=O)[nH]3)cn2)CC1 [IQ-002-1] and report it.
< 50 nM

Bench note: what IC50 did Cc1cccc2c(=O)[nH]c(-c3ccc(C(=O)N(C)C4CCN(C)C4)cc3)cc12 (stereo not drawn) [IQ-196] show?
< 20 nM

Which IC50 is reported for this molecule? O=c1[nH]c(-c2ccc(CN3CCNCC3)cc2)cc2c(F)cccc12
< 50 nM

For Cc1cccc2c(=O)[nH]c(-c3ccc(C(=O)N4CCN(C)CC4)nc3)cc12 , what is its reported IC50?
26 nM

Would you kindly share the measured IC50 for Cc1cccc2c(=O)[nH]c(-c3ccc(C(=O)N(C)CC4CCN(C(=O)OC(C)(C)C)CC4)cc3)cc12 ?
< 500 nM

Returns the measured IC50 for the input molecule. Input: CN1CCN(C(=O)c2ccc(-c3cc4c(F)ccc(F)c4c(=O)[nH]3)cc2)CC1
< 50 nM

Returns the measured IC50 for the input molecule. Input: Cc1cccc2c(=O)[nH]c(-c3ccc(CN4CCC(N(C)C)C4)cc3)cc12 (stereo not drawn)
< 50 nM

Look up IC50 for this molecule: Cc1cccc2c(=O)[nH]c(-c3ccc(C(=O)N(C)C4CCNCC4)cc3)cc12
< 50 nM

Record request: IC50 value, item Cc1cccc2c(=O)[nH]c(-c3ccc(S(=O)(=O)N(C)CC4CCNCC4)cc3)cc12
< 20 nM

Name the reported IC50 value associated with the molecule O=c1[nH]c(-c2ccc(CN3CCNCC3)cc2)cc2c(F)ccc(F)c12
< 500 nM

Returns the measured IC50 for the input molecule. Input: CNC1CN(Cc2ccc(-c3cc4c(C)cc(F)cc4c(=O)[nH]3)cc2)C1
< 20 nM

What does the record list as IC50 for O=c1[nH]c(-c2ccc(OCCN3CCCC3)cc2)cc2c(Cl)cccc12 ?
< 500 nM

Param item = Cc1cccc2c(=O)[nH]c(-c3ccc(CN4CCNCC4C)cc3)cc12 (stereo not drawn) [IQ-051-1] ; retrieve measured IC50.
< 20 nM
